Record: compiled Ki on Alpha-2A adrenergic receptor (Homo sapiens) from multiple reports.
Target: Alpha-2A adrenergic receptor (Homo sapiens)
Sequence (P08913 whole entry): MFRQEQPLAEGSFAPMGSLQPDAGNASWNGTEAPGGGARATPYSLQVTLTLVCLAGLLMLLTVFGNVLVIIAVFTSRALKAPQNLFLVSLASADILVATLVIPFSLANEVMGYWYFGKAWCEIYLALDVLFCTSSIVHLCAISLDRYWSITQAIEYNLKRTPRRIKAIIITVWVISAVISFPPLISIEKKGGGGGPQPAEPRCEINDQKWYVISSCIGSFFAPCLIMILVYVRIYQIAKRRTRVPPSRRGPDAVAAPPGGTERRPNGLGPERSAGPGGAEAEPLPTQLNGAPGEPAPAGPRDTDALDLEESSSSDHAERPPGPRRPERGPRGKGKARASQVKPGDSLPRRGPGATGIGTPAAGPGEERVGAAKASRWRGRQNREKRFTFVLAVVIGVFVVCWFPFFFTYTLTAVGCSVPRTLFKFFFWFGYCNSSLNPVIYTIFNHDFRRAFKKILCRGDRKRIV
Give your result in nM as a bare value.

1. CC(Oc1ccccc1-c1ccsc1)C1=NCCN1 (stereo unspecified) = 45.7
2. COc1ccc(CN[C@H]2C3C4CC5C6C4CC3C6C52)cc1OC (stereo partly specified) = 5210

Consider the record given below.
Entry CN(C)C[C@H]1CC2c3ccccc3Oc3ccc(F)cc3[C@H]2O1 (stereo partly specified) , tested on Alpha-2A adrenergic receptor (Homo sapiens), has a reported Ki of 269

###

Record: compiled Ki on Alpha-2A adrenergic receptor (Homo sapiens) from multiple reports.
Ki strictly under 90 nM means MET; at 90 nM or over means NOT MET.

Solved cases (4 shown):
1) C1=NC[C@]2(CC[C@@H]3Cc4ccccc4C[C@H]3C2)N1 (relative stereo) = MET
2) O=C(NNS(=O)(=O)c1ccccc1)c1cc(-c2ccnnc2)ccc1F = NOT MET
3) CN1CCc2ccc3c4c2[C@H]1Cc1cccc(c1-4)[C@@H]3N = NOT MET
4) CO/C(O)=C1\C(C)=NC(C)=C(C(=O)NCCCN2CCC(c3ccccc3)(c3ccccc3)CC2)C1c1ccc(C)cc1 (stereo not given) = NOT MET

QUERY: Please check: Ki for C1=NC[C@H](C[C@]23CCc4ccccc4C2C3)N1 (stereo not given in full) , strictly under 90 nM or not?
RESULT: MET

QUERY: Please check: Ki for c1ccc2c(c1)C[C@]1(c3c[nH]cn3)C[C@H]21 (stereo in doubt; 1) , strictly under 90 nM or not?
RESULT: MET

QUERY: Please check: Ki for Clc1cccc2c1C=C(CC1CN=CN1)CC2 (stereo not given) , strictly under 90 nM or not?
RESULT: MET

###

Record: compiled pKi on Alpha-2A adrenergic receptor (Homo sapiens) from multiple reports.
pKi: −log10 of the molar value.
The threshold is inclusive: pKi of exactly 8 counts as 1.0; values below receive 0.0.

Solved cases (3 shown):
1) c1ccc(C[C@H]2CCCC[C@@H]2NC2=NCCO2)cc1 = 0.0
2) CCCNC(=N)Nc1ccc(OCC)cc1 = 0.0
3) CO/C(O)=C1\C(C)=NC(C)=C(C(=O)NCCCN2CCC(c3ccccc3)(c3ccccc3)CC2)C1c1ccc2ccccc2c1 (stereo not given) = 0.0

# input for lookup
QUERY: Assess whether reported pKi for O=S(=O)(c1cccc2ccccc12)c1nn(Cc2ccccc2)c2ccc(N3CCNCC3)cc12 sits at 8 or higher.
RESULT: 0.0
